Assignment: determine reported optical density for the given binders.
target_desc: T1, mouse ACVR2A (mouse, UniProt P27038 20-135, limits assumed); further: test concentration or dose not given here
T1 construct: coated antigen of the initial ELISA
method_summary: ELISA
Kindly answer with a numeric value in OD, unit omitted.

IN: Check the records and state optical density for 369_D09 (antibody, V domains shown, Group III) VH: EVQLLESGGGLVQPGGSLRLSCAASGFTFSDYGMNWVRQAPGKGLEWVSNINYNGGYTSYADSVKGRFTISRDNSKNTLYLQMNSLRAEDTAVYYCARGANWHDTALDYWGQGTLVTVSS VL: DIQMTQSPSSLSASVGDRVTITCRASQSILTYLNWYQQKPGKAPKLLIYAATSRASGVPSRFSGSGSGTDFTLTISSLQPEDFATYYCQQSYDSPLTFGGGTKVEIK
OUT: 3.05

IN: Return reported optical density. Input binder: 370_B03 (antibody, V domains shown, Group III) VH: EVQLLESGGGLVQPGGSLRLSCAASGFTFSSYSMNWVRQAPGKGLEWVANINYNGGYTGYADSVKGRFTISRDNSKNTLYLQMNSLRAEDTAVYYCARGANWHDTALDYWGQGTLVTVSS VL: DIQMTQSPSSLSASVGDRVTITCRASQSILSYLNWYQQKPGKAPKLVIYAATSRASGVPSRFSGSGSGTDFTLTISSLQPEDFATYYCQQSYNNPLTFGGGTKVEIK
OUT: 3.57

IN: Identify the reported optical density for the following entry. 373_D03 (antibody, V domains shown, Group III) VH: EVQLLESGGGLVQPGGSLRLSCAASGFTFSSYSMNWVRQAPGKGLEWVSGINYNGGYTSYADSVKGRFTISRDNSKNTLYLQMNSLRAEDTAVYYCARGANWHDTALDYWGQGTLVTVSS VL: DIQMTQSPSSLSASVGDRVTITCRASQSIVSYLNWYQQKPGKAPKLLIYAATSLASGVPSRFSGSGSGTDFTLTISSLQPEDFATYYCQQSYDTPLTFGGGTKVEIK
OUT: 3.69

IN: Provide optical density value for the following binder: 367_E05 (antibody, V domains shown, Group III) VH: EVQLLESGGGLVQPGGSLRLSCAASGFTFSSYGMNWVRQAPGKGLEWVAGINYNGGYTSYADSVKGRFTISRDNSKNTLYLQMNSLRAEDTAVYYCARGANWHDTHLDYWGQGTLVTVSS VL: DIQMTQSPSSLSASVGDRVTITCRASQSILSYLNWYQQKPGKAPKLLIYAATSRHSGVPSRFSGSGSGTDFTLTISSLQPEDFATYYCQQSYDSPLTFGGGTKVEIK
OUT: 2.64

IN: State its optical density: 374_F07 (antibody, V domains shown, Group III) VH: EVQLLESGGGLVQPGGSLRLSCAASGFTFDSYSMNWVRQAPGKGLEWVASINYNGGYTGYADSVKGRFTISRDNSKNTLYLQMNSLRAEDTAVYYCARGANWHDTHLDYWGQGTLVTVSS VL: DIQMTQSPSSLSASVGDRVTITCRASQSILSYLNWYQQKPGKAPKLVIYAVTSLASGVPSRFSGSGSGTDFTLTISSLQPEDFATYYCQQSYESPLTFGGGTKVEIK
OUT: 3.54

Values compiled from patent US20210380703A1.
